# Protocol notes: Cmax in mouse at 30 mg/kg, po administered as single dose by LC/MS/MS analysis
# Stated conditions: in vivo
Endpoint: Cmax

[[record]]
smiles_str = "Cc1sc([C@@H]2CCCN2C(=O)CN(C)C)cc1C(=O)Nc1ncc(Cl)s1.Cl"
observed_measurement = "> 9 µM"


# input for lookup
I'd like to know its Cmax. The compound in question is "Cc1sc(-c2ccccc2C(N)=O)cc1C(=O)Nc1nc2c(s1)CCC2" < 1 µM

* * *

# Protocol notes: Ratio of AUC (0 to 1.5 hrs) in C57BL/6J mouse liver to plasma at 10 mg/kg, po administered as single dose by LC/MS/MS analysis
# Assay type: ADME, organism-based
# Stated conditions: liver and plasma, read-out: Ratio AUC
Endpoint: Kp
Hey, just send me the number, nothing else.

[[record]]
smiles_str = "CCN(CC(=O)O)CC(=O)N1CCC[C@H]1c1cc(C(=O)Nc2ncc(F)s2)c(C)s1"
observed_measurement = 1.3


# context switch: different compound, same Kp
Look at this compound and give its reported Kp. "CS(=O)(=O)c1ccc([C@@H](C[C@H]2CCC(=O)C2)C(=O)Nc2cnccn2)cc1Cl" 5.6

* * *

# Tested system: Voltage-gated inwardly rectifying potassium channel KCNH2 (Homo sapiens)
# Sequence (Q12809 whole entry): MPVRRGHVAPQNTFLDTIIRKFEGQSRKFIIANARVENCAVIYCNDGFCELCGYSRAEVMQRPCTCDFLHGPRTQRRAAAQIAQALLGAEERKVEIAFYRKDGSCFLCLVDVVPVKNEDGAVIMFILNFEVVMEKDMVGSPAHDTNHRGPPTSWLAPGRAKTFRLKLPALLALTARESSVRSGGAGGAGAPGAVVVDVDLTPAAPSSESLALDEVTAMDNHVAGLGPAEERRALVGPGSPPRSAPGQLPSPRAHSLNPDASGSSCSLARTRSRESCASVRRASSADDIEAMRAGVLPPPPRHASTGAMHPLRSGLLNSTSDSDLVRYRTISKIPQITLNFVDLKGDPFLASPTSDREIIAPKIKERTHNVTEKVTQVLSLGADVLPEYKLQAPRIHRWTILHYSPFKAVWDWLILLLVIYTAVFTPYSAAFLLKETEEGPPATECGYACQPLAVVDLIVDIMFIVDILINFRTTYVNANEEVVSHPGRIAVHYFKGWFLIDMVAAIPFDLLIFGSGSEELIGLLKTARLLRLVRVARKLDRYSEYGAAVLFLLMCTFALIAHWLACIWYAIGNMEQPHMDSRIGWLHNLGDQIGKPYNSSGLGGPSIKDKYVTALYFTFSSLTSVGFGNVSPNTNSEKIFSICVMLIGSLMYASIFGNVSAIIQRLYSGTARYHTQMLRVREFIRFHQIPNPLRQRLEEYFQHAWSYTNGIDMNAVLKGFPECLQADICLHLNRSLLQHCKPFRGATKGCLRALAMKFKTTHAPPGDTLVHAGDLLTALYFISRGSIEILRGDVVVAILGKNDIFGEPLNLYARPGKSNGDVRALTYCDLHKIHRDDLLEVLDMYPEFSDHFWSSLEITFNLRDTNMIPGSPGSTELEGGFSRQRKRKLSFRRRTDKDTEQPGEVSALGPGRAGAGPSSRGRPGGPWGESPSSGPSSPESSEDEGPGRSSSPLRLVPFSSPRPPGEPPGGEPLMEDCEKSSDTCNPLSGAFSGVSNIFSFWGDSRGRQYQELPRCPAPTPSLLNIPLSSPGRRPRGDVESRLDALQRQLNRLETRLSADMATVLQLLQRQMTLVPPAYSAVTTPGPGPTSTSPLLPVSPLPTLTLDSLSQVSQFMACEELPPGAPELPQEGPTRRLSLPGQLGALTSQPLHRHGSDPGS
# Protocol notes: Inhibition of human ERG expressed in HEK293 cells at -80 holding potential by whole patch clamp assay
Endpoint: IC50

I'd like to know its IC50. The compound in question is "CCN(CC(=O)O)CC(=O)N1CCC[C@H]1c1cc(C(=O)Nc2ncc(F)s2)c(C)s1" > 300 µM

* * *

# Protocol notes: Terminal half life in ICR mouse at 10 mg/kg, po administered as single dose by LC/MS/MS analysis
# Format: ADME, organism-based
# Stated conditions: in vivo, read-out: beta t1/2 (converted)
Endpoint: half-life (h)
A number alone suffices; assume h.

Report half-life for "CCN(CC(=O)O)CC(=O)N1CCC[C@H]1c1cc(C(=O)Nc2ncc(F)s2)c(C)s1" please. 2

* * *

# Protocol notes: Aqueous solubility of the compound in phosphate buffered saline at pH 7.4 at 8 to 2000 uM by nephelometric method
# Type: physicochemical
Endpoint: solubility kinetic (µM)
Write the answer as a number in µM, unit excluded.

Recorded solubility kinetic for CC(=O)N1CCCC1c1cc(C(=O)Nc2nc3c(s2)CCC3)c(C)s1 (stereo not given) , please? 7.81

Dear colleague, I am looking for the recorded solubility kinetic of the following compound: "Cc1sc(-c2ccccc2C(=O)NCCN(C)C)cc1C(=O)Nc1nc2c(s1)CCC2" 1.95

Could you tell me which solubility kinetic is on file for "Cc1sc(N2CCCC2=O)cc1C(=O)Nc1nc2c(s1)CCC2" ? 3.91

Using the record for "Cc1sc(-c2ccccc2C(N)=O)cc1C(=O)Nc1nc2c(s1)CCC2" , report its solubility kinetic. 1.95

Request the reported solubility kinetic associated with "Cc1sc(-c2ccccc2C(=O)NCCC(N)=O)cc1C(=O)Nc1nc2c(s1)CCC2" 3.91

Which solubility kinetic is reported for this compound? "Cc1sc(-c2ccccc2C(=O)NCCc2nnn[nH]2)cc1C(=O)Nc1nc2c(s1)CCC2" 31.3

Item under review: "Cc1sc(-c2ccccc2C(=O)NCCO)cc1C(=O)Nc1nc2c(s1)CCC2" . Reported solubility kinetic? 0.98

Quick check: solubility kinetic of "Cc1sc(N2CCCCC2=O)cc1C(=O)Nc1nc2c(s1)CCC2" ? 0.98

What value of solubility kinetic has been recorded for this entry: Cc1sc(C2CCCN2C(=O)CCN)cc1C(=O)Nc1nc2c(s1)CCC2 (stereo not given) 0.98

Reported solubility kinetic for CC(=O)N1CCCCC1c1cc(C(=O)Nc2nc3c(s2)CCC3)c(C)s1 (stereo not given) : what is it? 0.98
